Value source: patent EP1803452A1

Experiment: Metabolic stability test in liver S9
Type: in vitro ADME
Conditions: pH 7.4; unchanged form after 10 minutes at 37°C, human liver S9 2 mg protein/mL, LC/MS; read-out: Remaining rate in human liver S9 (%/10min)
Binarize remaining at 10 min at 6%; below is y, at or above is n.

[[record]]
compound = "CCCOC(=O)c1cc(Cl)c(OC(=O)CCCc2ccc(NC(=O)c3ccc(C)nc3-c3ccc(C(F)(F)F)cc3)c(C(=O)N(C)C)c2)c(OC)c1"
qualitative_label = "n"


Strictly below 6%: is that where remaining at 10 min of COC(=O)c1cc(C(=O)OC(C)C)cc(C)c1OC(=O)CCCc1ccc(NC(=O)c2ccc(C)nc2-c2ccc(C(F)(F)F)cc2)c(C(=O)N(C)C)c1 sits?
n

Strictly below 6%: is that where remaining at 10 min of CCCC(=O)c1ccc(OC(=O)CCCc2ccc(NC(=O)c3ccccc3-c3ccc(C(F)(F)F)cc3)c(C(=O)N(C)C)c2)cc1 sits?
y

Strictly below 6%: is that where remaining at 10 min of CN(C)C(=O)c1cc(CCCC(=O)Oc2ccc(C(=O)OC3CCCc4ccccc43)cc2)ccc1NC(=O)c1ccccc1-c1ccc(C(F)(F)F)cc1 (stereo not drawn) sits?
n

Strictly below 6%: is that where remaining at 10 min of CN(C)C(=O)c1cc(CCCC(=O)Oc2ccc(C(=O)OCc3ccccc3)cc2)ccc1NC(=O)c1ccccc1-c1ccc(C(F)(F)F)cc1 sits?
n

Strictly below 6%: is that where remaining at 10 min of COC(=O)c1ccc(OC(=O)CCCc2ccc(NC(=O)c3ccccc3-c3ccc(C(F)(F)F)cc3)c(C(=O)N(C)C)c2)cc1C(F)(F)F sits?
y

Strictly below 6%: is that where remaining at 10 min of COc1ccc(COC(=O)c2ccc(OC(=O)CCCc3ccc(NC(=O)c4ccccc4-c4ccc(C(F)(F)F)cc4)c(C(=O)N(C)C)c3)cc2)cc1 sits?
n

Strictly below 6%: is that where remaining at 10 min of COC(=O)c1ccc(OC(=O)CCCc2ccc(NC(=O)c3ccccc3-c3ccc(C(F)(F)F)cc3)c(C(=O)N(C)C)c2)c(C(C)C)c1 sits?
n

Strictly below 6%: is that where remaining at 10 min of CCOC(=O)c1ccc(OC(=O)CCCc2ccc(NC(=O)c3ccccc3-c3ccc(C(F)(F)F)cc3)c(C(=O)N(C)C)c2)cc1 sits?
y

Strictly below 6%: is that where remaining at 10 min of COC(=O)c1ccc(OC(=O)CCCc2ccc(NC(=O)c3ccccc3-c3ccc(C(F)(F)F)cc3)c(C(=O)N(C)C)c2)c(OC)c1 sits?
y

Strictly below 6%: is that where remaining at 10 min of COC(=O)c1cc(OC)c(OC(=O)CCCc2ccc(NC(=O)c3ccc(C)nc3-c3ccc(C(F)(F)F)cc3)c(C(=O)N(C)C)c2)c(C(F)(F)F)c1 sits?
n

----------
Assay: Metabolic stability test in liver S9
Assay type: in vitro ADME
Details: pH 7.4; unchanged form after 60 minutes at 37°C, human liver S9 2 mg protein/mL, LC/MS; read-out: Remaining rate in human liver S9 (%/60min)
recorded_metric: remaining at 1 h (%)
Give bare numbers, in %.

Worked cases, remaining at 1 h given:
[[record]]
chemical_string = "CC(C)OC(=O)c1ccc(OC(=O)CCCc2ccc(NC(=O)c3ccncc3-c3ccc(C(F)(F)F)cc3)c(C(=O)N(C)C)c2)cc1"
recorded_metric = "remaining at 1 h"
output_unit = "%"
result_number = 0

[[record]]
chemical_string = "COC(=O)c1ccc(OC(=O)CCCc2ccc(NC(=O)c3ccc(C)cc3-c3ccc(C(F)(F)F)cc3)c(C(=O)N(C)C)c2)cc1"
recorded_metric = "remaining at 1 h"
output_unit = "%"
result_number = 0


// switching to the query compound
Item under review: COc1cccc(COC(=O)c2ccc(OC(=O)CCCc3ccc(NC(=O)c4ccccc4-c4ccc(C(F)(F)F)cc4)c(C(=O)N(C)C)c3)cc2)c1 . Reported remaining at 1 h?
7

----------
Experiment: Metabolic stability test in plasma
Assay type: in vitro ADME, human
Settings: unchanged form after 60 minutes at 37°C in human plasma, LC/MS; read-out: Remaining rate in human plasma (%/60min)
recorded_metric: remaining at 1 h (%)
One number for each entry, in %.

Worked cases, remaining at 1 h given:
[[record]]
chemical_string = "COc1cc(C(=O)OC(C)C)cc(OC)c1OC(=O)CCCc1ccc(NC(=O)c2ccc(C)nc2-c2ccc(C(F)(F)F)cc2)c(C(=O)N(C)C)c1"
recorded_metric = "remaining at 1 h"
result_number = 0

[[record]]
chemical_string = "CCOc1cc(C(=O)OC)cc(OC)c1OC(=O)CCCc1ccc(NC(=O)c2ccc(C)nc2-c2ccc(C(F)(F)F)cc2)c(C(=O)N(C)C)c1"
recorded_metric = "remaining at 1 h"
result_number = 0

[[record]]
chemical_string = "Cc1ccc(C(=O)Nc2ccc(CCCC(=O)Oc3ccc(C(=O)OCc4ccccc4)cc3)cc2C(=O)N(C)C)c(-c2ccc(C(F)(F)F)cc2)n1"
recorded_metric = "remaining at 1 h"
result_number = 0

[[record]]
chemical_string = "CCOC(=O)c1cc(OC)c(OC(=O)CCCc2ccc(NC(=O)c3ccc(C)nc3-c3ccc(C(F)(F)F)cc3)c(C(=O)N(C)C)c2)c(C(=O)OC)c1"
recorded_metric = "remaining at 1 h"
result_number = 0

[[record]]
chemical_string = "CCCOC(=O)c1ccc(OC(=O)CCCc2ccc(NC(=O)c3ccccc3-c3ccc(C(F)(F)F)cc3)c(C(=O)N(C)C)c2)cc1"
recorded_metric = "remaining at 1 h"
result_number = 12

[[record]]
chemical_string = "COC(=O)c1ccc(OC(=O)CCCc2ccc(NC(=O)c3ccc(C)nc3-c3ccc(C(F)(F)F)cc3)c(C(=O)N(C)C)c2)c(C)c1"
recorded_metric = "remaining at 1 h"
result_number = 11

[[record]]
chemical_string = "CCc1cc(C(=O)OC)cc(Cl)c1OC(=O)CCCc1ccc(NC(=O)c2ccc(C)nc2-c2ccc(C(F)(F)F)cc2)c(C(=O)N(C)C)c1"
recorded_metric = "remaining at 1 h"
result_number = 19

[[record]]
chemical_string = "CC(=O)N1CCC(OC(=O)c2ccc(OC(=O)CCCc3ccc(NC(=O)c4ccccc4-c4ccc(C(F)(F)F)cc4)c(C(=O)N(C)C)c3)cc2)CC1"
recorded_metric = "remaining at 1 h"
result_number = 3

[[record]]
chemical_string = "COc1cc(C(=O)OC(C)C)cc(Cl)c1OC(=O)CCCc1ccc(NC(=O)c2ccc(C)nc2-c2ccc(C(F)(F)F)cc2)c(C(=O)N(C)C)c1"
recorded_metric = "remaining at 1 h"
result_number = 0

[[record]]
chemical_string = "COC(=O)c1ccc(OC(=O)CCCc2ccc(NC(=O)c3ccccc3-c3ccc(C(F)(F)F)cc3)c(C(=O)N(C)C)c2)cc1OC"
recorded_metric = "remaining at 1 h"
result_number = 0


For every item below, please supply its remaining at 1 h.
1. COC(=O)c1cc(C)c(OC(=O)CCCc2ccc(NC(=O)c3ccc(C)nc3-c3ccc(C(F)(F)F)cc3)c(C(=O)N(C)C)c2)c(C(=O)OC)c1
2. CCOc1cc(C(=O)OC)cc(Cl)c1OC(=O)CCCc1ccc(NC(=O)c2ccc(C)nc2-c2ccc(C(F)(F)F)cc2)c(C(=O)N(C)C)c1

0
0

----------
Can you tell me remaining at 10 min for the items I'm about to list?
Assay: Stability test in buffer (pH 7.4)
Type: physicochemical
Conditions: phosphate buffer/acetonitrile 7:3; 10 minutes at 37°C, 100 mM potassium phosphate buffer (pH 7.4) and acetonitrile 7:3 (v/v), LC/MS; read-out: Buf. remaining rate (%/10min)
Answers are plain numbers, in %.

Worked cases, remaining at 10 min given:
[[record]]
chemical_string = "COC(=O)c1ccc(OC(=O)CCCc2ccc(NC(=O)c3ccccc3-c3ccc(C(F)(F)F)cc3)c(C(=O)N(C)C)c2)c(C)c1"
recorded_metric = "remaining at 10 min"
result_number = 101

[[record]]
chemical_string = "COC(=O)c1cc(C)c(OC(=O)CCCc2ccc(NC(=O)c3ccc(C)nc3-c3ccc(C(F)(F)F)cc3)c(C(=O)N(C)C)c2)c(OC)c1"
recorded_metric = "remaining at 10 min"
result_number = 99


Item under review: CN(C)C(=O)c1cc(CCCC(=O)Oc2ccc(C(=O)OCc3ccc(Cl)cc3)cc2)ccc1NC(=O)c1ccccc1-c1ccc(C(F)(F)F)cc1 . Reported remaining at 10 min?
96

----------
Experiment: Metabolic stability test in liver S9
Assay type: in vitro ADME
Settings: pH 7.4; unchanged form after 60 minutes at 37°C, human liver S9 2 mg protein/mL, LC/MS; read-out: Remaining rate in human liver S9 (%/60min)
Can you tell me remaining at 1 h for the items I'm about to list?
Answers are plain numbers, in %.

Worked cases, remaining at 1 h given:
[[record]]
chemical_string = "COC(=O)c1cc(OC)c(OC(=O)CCCc2ccc(NC(=O)c3ccc(C)nc3-c3ccc(C(F)(F)F)cc3)c(C(=O)N(C)C)c2)c(C(=O)OC)c1"
result_number = 2

[[record]]
chemical_string = "COc1cc(C(=O)OCC(=O)N(C)C)cc(Cl)c1OC(=O)CCCc1ccc(NC(=O)c2ccc(C)nc2-c2ccc(C(F)(F)F)cc2)c(C(=O)N(C)C)c1"
result_number = 2

[[record]]
chemical_string = "COC(=O)c1cc(C)c(OC(=O)CCCc2ccc(NC(=O)c3ccc(C)nc3-c3ccc(C(F)(F)F)cc3)c(C(=O)N(C)C)c2)c(F)c1"
result_number = 0

[[record]]
chemical_string = "CN(C)C(=O)c1cc(CCCC(=O)Oc2ccc(C(=O)OCc3ccsc3)cc2)ccc1NC(=O)c1ccccc1-c1ccc(C(F)(F)F)cc1"
result_number = 0

[[record]]
chemical_string = "CN(C)C(=O)c1cc(CCCC(=O)Oc2ccc(C(=O)OCc3ccncc3)cc2)ccc1NC(=O)c1ccccc1-c1ccc(C(F)(F)F)cc1"
result_number = 0


For every item below, please supply its remaining at 1 h.
1. COc1ccc(COC(=O)c2ccc(OC(=O)CCCc3ccc(NC(=O)c4ccccc4-c4ccc(C(F)(F)F)cc4)c(C(=O)N(C)C)c3)cc2)cc1
2. CCCOC(=O)c1ccc(OC(=O)CCCc2ccc(NC(=O)c3ccccc3-c3ccc(C(F)(F)F)cc3)c(C(=O)N(C)C)c2)cc1
3. COC(=O)c1ccc(OC(=O)CCCc2ccc(NC(=O)c3ccccc3-c3ccc(C(F)(F)F)cn3)c(C(=O)N(C)C)c2)cc1
4. CCC(=O)c1ccc(OC(=O)CCCc2ccc(NC(=O)c3ccccc3-c3ccc(C(F)(F)F)cc3)c(C(=O)N(C)C)c2)cc1
5. CCOc1cc(C(=O)OC)cc(OC)c1OC(=O)CCCc1ccc(NC(=O)c2ccc(C)nc2-c2ccc(C(F)(F)F)cc2)c(C(=O)N(C)C)c1
6. CCCOC(=O)c1cc(Cl)c(OC(=O)CCCc2ccc(NC(=O)c3ccc(C)nc3-c3ccc(C(F)(F)F)cc3)c(C(=O)N(C)C)c2)c(OC)c1

7
0
0
0
1
3

Item under review: COC(=O)c1ccc(OC(=O)CCCc2ccc(NC(=O)c3ccccc3-c3ccc(C(F)(F)F)cc3)c(C(=O)N(C)C)c2)c(C(=O)OC)c1 . Reported remaining at 1 h?
0
